// reported Conc. feces/MIC for each item listed
test: Pharmacokinetics study in mice (plasma and feces levels); type: in vivo; details: dose 20 mg · kg^−1

// worked examples, Conc. feces/MIC included
- compound: "O=C(Nc1ncco1)c1ccnc(-c2ccc(Cl)c(Cl)c2)c1 [Compound 4]"
  Conc. feces/MIC: 11
- compound: "O=C(Nc1ncco1)c1cc(Oc2cccc(F)c2)ccn1 [Compound 107]"
  Conc. feces/MIC: 2.4
- compound: "O=C([O-])c1ccc2oc(NC(=O)c3cc(Oc4ccc(F)c(F)c4)ccn3)nc2c1.[Na+] [Compound 116]"
  Conc. feces/MIC: 7.4
- compound: "O=C(Nc1ncco1)c1cc(Oc2cccc(OC(F)(F)F)c2)ccn1 [Compound 108]"
  Conc. feces/MIC: 49

Attention now turns to another entry.
Query :: Return reported Conc. feces/MIC; argument: O=C(O)c1ccc2oc(NC(=O)c3cc(Oc4cccc(OC(F)(F)F)c4)ccn3)nc2c1 [Compound 1]
Result :: 108

###

tested on: C. difficile; assay: MIC by broth microdilution against C. difficile strains; type: cell-based, Clostridioides difficile; conditions: Clostridioides difficile, C. difficile NR-49306; Table 9; read-out: MIC
endpoint: MIC

Solved cases (3 shown):
- compound: "O=C(O)c1ccc2oc(NC(=O)c3cc(Oc4cccc(OC(F)(F)F)c4)ccn3)nc2c1"
  MIC: "0.25 µg/mL"
- compound: "CN[C@H](CC(C)C)C(=O)N[C@H]1C(=O)N[C@@H](CC(N)=O)C(=O)N[C@H]2C(=O)N[C@H]3C(=O)N[C@H](C(=O)N[C@H](C(=O)O)c4cc(O)cc(O)c4-c4cc3ccc4O)[C@H](O)c3ccc(c(Cl)c3)Oc3cc2cc(c3O[C@@H]2O[C@H](CO)[C@@H](O)[C@H](O)[C@H]2O[C@H]2C[C@](C)(N)[C@H](O)[C@H](C)O2)Oc2ccc(cc2Cl)[C@H]1O [VAN, vancomycin, reference compound]"
  MIC: "1 µg/mL"
- compound: "Cc1ncc([N+](=O)[O-])n1CCO [MTZ, metronidazole, reference compound]"
  MIC: "0.5 µg/mL"

Query :: Lab note: need MIC for CCc1c(Cl)c(O)c(Cl)c(O)c1C(=O)O[C@H]1[C@H](O)[C@H](OC)[C@H](OC/C2=C\C=C\C[C@H](O)/C(C)=C/[C@H](CC)[C@@H](O[C@@H]3OC(C)(C)[C@@H](OC(=O)C(C)C)[C@H](O)[C@@H]3O)/C(C)=C/C(C)=C/C[C@@H]([C@@H](C)O)OC2=O)O[C@@H]1C [FDX, fidaxomicin, reference compound] on C. difficile, anyone have it?
Result :: 0.03 µg/mL

###

Reported MIC is given for each of the following compounds.
system: C. difficile; assay: MIC by broth microdilution against C. difficile strains; type: cell-based, Clostridioides difficile; conditions: Clostridioides difficile, C. difficile NR-49285; Table 9; read-out: MIC
Response body: numeric value in µg/mL, unit text excluded.

Here are 3 compounds together with their reported answers.
- compound: "CCc1c(Cl)c(O)c(Cl)c(O)c1C(=O)O[C@H]1[C@H](O)[C@H](OC)[C@H](OC/C2=C\\C=C\\C[C@H](O)/C(C)=C/[C@H](CC)[C@@H](O[C@@H]3OC(C)(C)[C@@H](OC(=O)C(C)C)[C@H](O)[C@@H]3O)/C(C)=C/C(C)=C/C[C@@H]([C@@H](C)O)OC2=O)O[C@@H]1C [FDX, fidaxomicin, reference compound]"
  observed: 0.06
- compound: "O=C(O)c1ccc2oc(NC(=O)c3cc(Oc4cccc(OC(F)(F)F)c4)ccn3)nc2c1 [Compound 1]"
  observed: 0.03
- compound: "CN[C@H](CC(C)C)C(=O)N[C@H]1C(=O)N[C@@H](CC(N)=O)C(=O)N[C@H]2C(=O)N[C@H]3C(=O)N[C@H](C(=O)N[C@H](C(=O)O)c4cc(O)cc(O)c4-c4cc3ccc4O)[C@H](O)c3ccc(c(Cl)c3)Oc3cc2cc(c3O[C@@H]2O[C@H](CO)[C@@H](O)[C@H](O)[C@H]2O[C@H]2C[C@](C)(N)[C@H](O)[C@H](C)O2)Oc2ccc(cc2Cl)[C@H]1O [VAN, vancomycin, reference compound]"
  observed: 0.25

--- query ---
Query :: I would be grateful if you could share the reported MIC for Cc1ncc([N+](=O)[O-])n1CCO [MTZ, metronidazole, reference compound] .
Result :: 0.5
